Assay: Steady‐state plasma pharmacokinetics
Format: in vivo
Conditions: human, oral, CC‐223 + CC‐292 (arm C dose level 2, day 15), read-out: apparent plasma clearance (converted)
Experimental: AEs were assessed according to the National Cancer Institute Common Terminology Criteria for AEs, version 4.03, up to 28 days after the last treatment. […] Responses were assessed by the investigator per International Working Group 2007 criteria. Safety analyses were performed on all patients who received ≥1 dose of study treatment (safety population). The PK population comprised all patients who took ≥1 dose of study treatment and had ≥1 measured drug concentration. […]
Listed molecules paired with reported clearance

C=CC(=O)Nc1cccc(Nc2nc(Nc3ccc(OCCOC)cc3)ncc2F)c1 :: ~1170 mL/min

Pending molecule:
Req: What measured clearance goes with `CO[C@H]1CC[C@H](N2C(=O)CNc3ncc(-c4ccc(C(C)(C)O)nc4)nc32)CC1` ?
Resp: ~405 mL/min

###

Assay: Steady‐state plasma pharmacokinetics
Type: in vivo
Conditions: human, oral, CC‐223 + CC‐292 (arm C dose level 2, day 15), read-out: mean apparent volume of distribution
metric.name: Vd (L)

(1) C=CC(=O)Nc1cccc(Nc2nc(Nc3ccc(OCCOC)cc3)ncc2F)c1
(2) CO[C@H]1CC[C@H](N2C(=O)CNc3ncc(-c4ccc(C(C)(C)O)nc4)nc32)CC1
Req: // compare measured Vd, left 1 , right 2 , return larger Could you answer with the label of the item you picked?
Resp: 1

###

Experiment: Steady‐state plasma pharmacokinetics
Format: in vivo
Settings: human, oral, CC‐223 + CC‐292 (arm C dose level 2, day 15), read-out: terminal half‐life (converted)
metric.name: half-life

CO[C@H]1CC[C@H](N2C(=O)CNc3ncc(-c4ccc(C(C)(C)O)nc4)nc32)CC1 :: ~3.6 h

Pending compound:
Req: What measured half-life goes with `C=CC(=O)Nc1cccc(Nc2nc(Nc3ccc(OCCOC)cc3)ncc2F)c1` ?
Resp: ~3.3 h
